Assignment: determine reported inhibition for the given molecules.
ASSAY PROTOCOL: growth inhibition, single agents and combos, CRL2098, cell-based, BGB or cisplatin IC20 combos, synergistic combos for chromothripsis tumors (AID 1671454);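 note: cells exposed for 96 h before readout; 0% = vehicle DMSO and 100% = killing by high DMSO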
EXPERIMENTAL CONTEXT: CRL2098 osteosarcoma cells, drug combinations, measured here: combination with BGB at IC20, at 0.5 µM, stronger effect = higher value
One number for each entry, in %.

# example entries with known answers
INSERT INTO measurements (molecule, reported_value) VALUES
  ('Cc1c(Br)cc(NCC(=O)N/N=C/c2cc([N+](=O)[O-])ccc2O)cc1Br', -43.9),
  ('Nc1ccccc1NC(=O)c1cnccn1', -72.3),
  ('CC(=O)C1(O)Cc2c(O)c3c(c(O)c2C(OC2CC(N)C(O)C(C)O2)C1)C(=O)c1ccccc1C3=O (centres undefined)', 98);

Requested field: inhibition. Item: Nc1ccn(C2CCC(CO)O2)c(=O)n1 (centres undefined) -74.6

----------
Assignment: determine reported period change for the given compounds.
ASSAY PROTOCOL: compounds altering circadian rhythm period length – cell-based, LOPAC library, luminescence reporter (AID 2774);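 note: values are relative to mean of DMSO wells on each plate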
EXPERIMENTAL CONTEXT: circadian reporter cells, at 7 µM, actives lie on both sides
Activity calls are given as the source filed them. How the calls were made is not given here.

INSERT INTO results (compound, reported_value) VALUES
  ('N[C@@H](Cc1ccc(O)c(I)c1)C(=O)O', '0.02 h (inactive)');

Quick one: give me period change for each item below, same order please.
1. N=C(N)SCCc1cccc(CCSC(=N)N)c1
2. CCCCCCCCCC(=O)NC(CN1CCOCC1)[C@H](O)c1ccccc1 (stereo partly drawn)
3. N#C/C(=C\c1ccc(O)c(O)c1)C(=O)c1ccc(O)c(O)c1

["0.115 h (inactive)", "0.05 h (inactive)", "-0.055 h (inactive)"]

----------
ASSAY PROTOCOL: chitosan synthesis blockers in C. neoformans – flow cytometry, Cibacron Brilliant Red staining (AID 1347148);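 note: compound exposure lasted three days at 37 degrees C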
EXPERIMENTAL CONTEXT: Cryptococcus neoformans chitosan, stronger effect = lower value; at 10 µM unless noted
Active and inactive are the calls of the source. No rule for the calls is given here.
MEASUREMENT NAME: fold fluorescence

# example entries with known answers
INSERT INTO assay_data (smiles_text, reported_value) VALUES
  ('CCCCCCCC/C=C\CCCCCCCCOC[C@@H](COP(=O)([O-])OCC[N+](C)(C)C)OC(C)=O', '3.92 (inactive)'),
  ('OC[C@@H]1NC[C@@H](O)[C@H](O)[C@H]1O', '7.48 [at 306.4 µM] (inactive)');

Alright, here's another molecule for you.
Requested field: fold fluorescence. Item: CCCCC/C=C\C\C=C/C=C/C=C/[C@@H](SC[C@H](N)C(=O)NCC(=O)O)[C@@H](O)CCCC(=O)O 3.83 [at 1 µM] (inactive)

----------
ASSAY PROTOCOL: MELAS cybrid and Rieske KO viability enhancers – cell-based, MELAS cybrids, Rieske KO mouse fibroblasts, CellTiter-Glo, primary screen (AID 1508586);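 note: z relative to plate mean and SD of compound and empty wells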
EXPERIMENTAL CONTEXT: Rieske KO mouse fibroblast survival, low glucose, CellTiter-Glo 72 h
MEASUREMENT NAME: z-score
Give bare numbers.

INSERT INTO results (compound, reported_value) VALUES
  ('CO[C@H]1/C=C/O[C@@]2(C)Oc3c(C)c(O)c4c(O)c(c(/C=N/N5CCN(C6CCCC6)CC5)c(O)c4c3C2=O)NC(=O)/C(C)=C\C=C\[C@H](C)[C@H](O)[C@@H](C)[C@@H](O)[C@@H](C)[C@H](OC(C)=O)[C@@H]1C', 0.251),
  ('CC1CC=CC=CC=CC=CC(O[C@@H]2OC(C)C(O)C(N)C2O)C[C@@H]2O[C@](O)(CC(O)C[C@H]3OC3C=CC(=O)O1)CC(O)C2C(=O)O (stereo partly drawn)', -0.427),
  ('Cc1nc(NC(=O)NCc2cccc(C(F)(F)F)c2)nn1C', 1.4),
  ('CN(CC1COCCO1)S(=O)(=O)Nc1ccc2ccc3ncc(-c4cnn(C)c4)cc3c(=O)c2c1 (stereo not drawn)', 2.15),
  ('C[N+](C)(C)[C@@H](Cc1c[nH]c(=S)[nH]1)C(=O)[O-]', -0.623),
  ('CCCCc1ncc(C=C(Cc2cccs2)C(=O)O)n1Cc1ccc(C(=O)O)cc1', -0.115),
  ('O=NO', -0.15),
  ('O=C1O[C@H](C(O)CO)C(O)C1O (stereo partly drawn)', -0.154),
  ('CCOC(=O)c1cc2ccc(O)cc2oc1=O', -0.345),
  ('O=C(O)c1cnc(-c2ccccc2)[nH]1', -0.215);

Quick one: give me z-score for each item below, same order please.
1. CCCn1ncc(-c2ccnc(NC3CC(C)(C)NC(C)(C)C3)n2)c1C
2. CC1COC(Nc2ccc3ncnc(Nc4ccc(OCc5nccs5)c(Cl)c4)c3c2)=N1 (stereo not drawn)
3. CN1CCN(Cc2ccc3sccc3c2)CC1CCO (stereo not drawn)
4. CCc1nc(CNc2cc(C(=O)Nc3ccc4c(c3)CCC4)cc(S(=O)(=O)NC)c2)c(C)[nH]1
5. Cc1ncc(-c2cc(C(=O)N(C)Cc3csc(C)n3)c3ccc(F)cc3n2)cn1
6. Cn1nc(C(C)(C)C)cc1C(=O)NC(Cc1cccc(Cl)c1)C(=O)NCC#N (stereo not drawn)
7. CC(=Cc1ccccc1)C=C1SC(=S)N(CC(=O)O)C1=O

0.593
-0.466
-0.424
-0.343
-0.299
0.0966
0.707

Source: PubChem BioAssay
